System: AsPC1 cells
runDescription: Acute ATP synthesis rescue by exogenous carbon sources in AsPC1 cells treated with devimistat and GPi
Type: cell-based, human
experimentalParameters: AsPC1, 50 μM GPi, 60 μM devimistat, 50 μM oleic acid
endpointName: inhibition of oleic acid (OA)-driven acute ATP synthesis / OA rescue

> print(dat)
                                   compound                testvalue
1  CCOC(=O)[C@@]1(CCCCCCOc2ccc(Cl)cc2)CO1 [ETX]       strongly inhibited
2  COc1cc2c(Oc3ccc(NC(=O)C4(C(=O)Nc5ccc(F)cc5)CC4)cc3F)ccnc2cc1OCCCN1CCOCC1 [Foretinib]        robust inhibition
3  C[C@@H](Oc1cc(-c2cnn(C3CCNCC3)c2)cnc1N)c1c(Cl)ccc(F)c1Cl [Crizotinib]        robust inhibition
4  CSc1cccc(Nc2ncc3cc(-c4c(Cl)cccc4Cl)c(=O)n(C)c3n2)c1 [PD-173955]  little or no inhibition
5  CNC(=O)c1c(F)cccc1Nc1nc(Nc2cc3c(cc2OC)CCN3C(=O)CN(C)C)nc2[nH]ccc12 [GSK1838705A]  little or no inhibition

Next compound, please.
System AsPC1 cells. Read-out inhibition of oleic acid (OA)-driven acute ATP synthesis / OA rescue. Item CSc1ccc2c(c1)N(CCC1CCCCN1C)c1ccccc1S2 (stereo not drawn) [TZ] . Report value.
strongly inhibited
